# credit: the NIST ThermoML archive (doi:10.1016/j.tca.2013.03.025)

Hi there, I'd appreciate the recorded mass density for every entry that follows.
Settings: 303.15 K; 101 kPa; Liquid; Vibrating tube method
Entry rule: numbers only, all in kg/m3.

Q: Entry under review: CCCCOC(=O)C(C)O (centres undefined) [butyl 2-hydroxypropanoate] . Reported mass density?
Ans: 972.515

Q: Entry under review: CCCO . Reported mass density?
Ans: 795.717

Q: Entry under review: CC(O)CO (centres undefined) . Reported mass density?
Ans: 1028.88

Q: Entry under review: OCCCO . Reported mass density?
Ans: 1046.63

====

Settings: 318.15 K; 101 kPa; Liquid; Vibrating tube method
quantity.kind: mass density (kg/m3)
Entry rule: numbers only, all in kg/m3.

Q: Entry under review: OCCCO . Reported mass density?
Ans: 1037.17

Q: Entry under review: CCCO . Reported mass density?
Ans: 783.357

Q: Entry under review: CCCCOC(=O)C(C)O (centres undefined) [butyl 2-hydroxypropanoate] . Reported mass density?
Ans: 957.624

Q: Entry under review: CC(O)CO (centres undefined) . Reported mass density?
Ans: 1017.52
